Target: T1, human neurotensin receptor type 1 (hNTS1R), stably expressed in CHO cells (human, UniProt P30989 1-418)
T1 construct: human neurotensin receptor type 1 (hNTS1R), wild type, stably expressed in Chinese hamster ovary cells; also called CHO-hNTS1R cells; CHO-NTS1R cells; source: CHO cells stably expressing hNTS1R; intact adherent cells, intact suspended cells and membrane preparations
T1 sequence (P30989 whole entry): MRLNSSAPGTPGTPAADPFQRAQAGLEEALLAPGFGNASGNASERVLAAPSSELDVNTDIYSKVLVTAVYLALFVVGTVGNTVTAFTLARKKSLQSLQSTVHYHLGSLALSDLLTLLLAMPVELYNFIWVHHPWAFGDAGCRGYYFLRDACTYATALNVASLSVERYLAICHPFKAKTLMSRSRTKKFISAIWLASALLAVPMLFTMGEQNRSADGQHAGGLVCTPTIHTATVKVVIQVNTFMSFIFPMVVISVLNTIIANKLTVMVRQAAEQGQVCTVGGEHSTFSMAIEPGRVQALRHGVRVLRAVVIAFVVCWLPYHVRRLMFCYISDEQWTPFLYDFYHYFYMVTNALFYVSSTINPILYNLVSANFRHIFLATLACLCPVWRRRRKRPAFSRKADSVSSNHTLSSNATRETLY
Assay: high-content imaging (HCI) of fluorescent ligand on cells; association (2.5 nM ligand) and dissociation (started with 1 μM NT(8–13)) at intact adherent CHO-hNTS1R cells, DPBS1, 23 ± 1 °C; kon = (kobs – koff)/[FL], Kd(kin) = koff/kon
Details: one partner purified
PROPERTY NAME: Kd
# include the unit after the value

// query Tell me the measured Kd of XPRRPYIL (N-terminus: 5-TAMRA attached through a 3-(1H-1,2,3-triazol-4-yl)propanoyl group; position 6 (X) = 2-(piperidin-4-yl)-Gly (pipGly); Arg8 = N^ω-[(4-(N-propanoyl)aminobutyl)aminocarbonyl]Arg) [5-TAMRA-labeled, propionylated NT(6–13) derivative 13 (UR-FE051)] , please.
// result 2.8 nM
